Measured IC50 accompanies every entry in the list below.
tested on: bladder specimens enucleated from rats; assay: Anticholinergic effect on bladder specimens enucleated from rats (contraction caused by acetylcholine); assay type: cell-based, rat (male S. D.); details: Rattus norvegicus; inhibition of contraction caused by acetylcholine (10^-5 M); Tyrode's solution 32° C.; agent applied 5 minutes before
Counter-ions that a name gives are not always drawn.
Please answer using a numeric value trailed by its unit.

>>> endpointvalue("O=C(NC1CCN(Cc2ccccc2)CC1)C(O)(c1ccccc1)C1CC1 (stereo not shown)")
"27 nM"
>>> endpointvalue("CCCOC(C(=O)OC1CCN(C)CC1)(c1ccccc1)c1ccccc1 [Propiverine hydrochloride, reference compound]")
"784 nM"
>>> endpointvalue("O=C(NC1CCN(Cc2ccccc2)CC1)C(O)(c1ccccc1)C1CCCC1 (stereo not shown)")
"33.6 nM"
>>> endpointvalue("O=C(NC1CCN(Cc2ccccc2)CC1)C(O)(c1cccc(Cl)c1)C1CCCC1 (stereo not shown)")
"200 nM"
>>> endpointvalue("O=C(NC1CCN(Cc2ccccc2)CC1)C(O)(c1ccccn1)C1CCCC1 (stereo not shown)")
"6.5 nM"
>>> endpointvalue("Cc1ccc(C(O)(C(=O)NC2CCN(Cc3ccccc3)CC2)C(C)C)cc1 (stereo not shown)")
"168 nM"

Now consider a different compound.
Give IC50 for CC(C)C(O)(C(=O)NC1CCN(Cc2ccccc2)CC1)c1cccc(Cl)c1 (stereo not shown)
280 nM

* * *

test system: bladder specimens enucleated from rats; assay: Calcium antagonism against bladder specimens enucleated from rats (contraction caused by calcium chloride); assay type: cell-based, rat (male S. D.); details: Rattus norvegicus; inhibition of contraction caused by 10^-3 M calcium chloride after Ca removal with 1 mM EDTA; cumulative application; corrected for spontaneous relaxation
Structures can show the parent of a compound that is named as a salt.
outcomeMeasure: IC30 (µM)
Record the value in µM, omitting the unit from your answer.

>>> endpointvalue("O=C(NC1CCN(Cc2ccccc2)CC1)C(O)(c1ccccc1)C1CCCCC1 (stereo not shown)")
2.66
>>> endpointvalue("O=C(NC1CCN(Cc2ccccc2)CC1)C(O)(c1ccccc1)C1CC1 (stereo not shown)")
26.6
>>> endpointvalue("CCCOC(C(=O)OC1CCN(C)CC1)(c1ccccc1)c1ccccc1 [Propiverine hydrochloride, reference compound]")
12.1

Report IC30 under test system bladder specimens enucleated from rats for O=C(NC1CCN(Cc2ccccc2)CC1)C(O)(c1ccccc1)C1CCCC1 (stereo not shown) .
2.85

* * *

test system: bladder specimens enucleated from rats; assay: Anticholinergic effect on bladder specimens enucleated from rats (contraction caused by acetylcholine); type: cell-based, rat (male S. D.); conditions: Rattus norvegicus; inhibition of contraction caused by acetylcholine (10^-5 M); Tyrode's solution 32° C.; agent applied 5 minutes before
Reported log10 of IC50 values for a set of molecules
Heads up: the numbers are on a log10 scale; they represent IC50 in nM.

# count of solved cases: 3
>>> endpointvalue("CN1CCC(NC(=O)C(O)(c2ccccc2)C2CCCCC2)CC1 (centres unmarked)")
2.64
>>> endpointvalue("CC(C)C(O)(C(=O)NC1CCN(Cc2ccccc2)CC1)c1ccccc1 (centres unmarked)")
1.82
>>> endpointvalue("COc1ccc(C(O)(C(=O)NC2CCN(Cc3ccccc3)CC2)C2CCCC2)cc1 (centres unmarked)")
2.11

Please report the measured log10 of IC50 for O=C(NC1CCN(Cc2ccccc2)CC1)C(O)(c1ccccc1)C1CCCCC1 (centres unmarked)
1.51

# return recorded log10 of IC50 for input COc1cccc(C(O)(C(=O)NC2CCN(Cc3ccccc3)CC2)C2CCCC2)c1 (centres unmarked)
2.93
